Here, each record is paired with measured relative viability data.
Tested on: 621-102 (TSC2-deficient)
Test: relative viability vs DMSO; higher = less cytotoxic;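 further: immortalized renal angiomyolipoma cells stably carrying empty vector or TSC2, dosed in 384-well plates in DMEM, viability normalized to vehicle-treated wells within each plate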
Details: 0.001 µM; serum: 10% FBS; 72 h
Counter-ions that a name gives are not always drawn.

[
  {
    "Compound": "O=C(Nc1ccc(OC(F)(F)F)cc1)c1sccc1NCc1ccnc2ccccc12",
    "relative viability": "116%"
  },
  {
    "Compound": "COC(=O)C1=C(C)NC(C)=C(C(=O)OCCN2CCN(C(c3ccccc3)c3ccccc3)CC2)C1c1cccc([N+](=O)[O-])c1 (configuration not stated) [Manidipine]",
    "relative viability": "102%"
  },
  {
    "Compound": "Cc1ncc(-c2ccnc(Nc3ccc(S(C)(=O)=O)cc3)n2)n1C(C)C",
    "relative viability": "101%"
  },
  {
    "Compound": "CCCCCOC(=O)Nc1nc(=O)n([C@@H]2O[C@H](C)[C@@H](O)[C@H]2O)cc1F",
    "relative viability": "112%"
  },
  {
    "Compound": "COc1cc(OC)c(OC)cc1C=O",
    "relative viability": "116%"
  },
  {
    "Compound": "NC1(c2ccc(-c3nc4ccn5c(=O)[nH]nc5c4cc3-c3ccccc3)cc2)CCC1",
    "relative viability": "102%"
  },
  {
    "Compound": "COCC(=O)NC/C=C/c1ccc2ncnc(Nc3ccc(Oc4ccc(C)nc4)c(C)c3)c2c1",
    "relative viability": "97.8%"
  },
  {
    "Compound": "CCN(CC)CCOc1ccc(C(=C(Cl)c2ccccc2)c2ccccc2)cc1 [Clomifene citrate (Serophene)]",
    "relative viability": "105%"
  },
  {
    "Compound": "Cc1nc(N)sc1-c1ccnc(Nc2ccc(N3CCOCC3)cc2)n1",
    "relative viability": "102%"
  },
  {
    "Compound": "CCNC(=O)c1cc2c(-c3cc(OCCN4CCCC4)c(Cl)cc3Cl)nc(N)nc2s1",
    "relative viability": "102%"
  },
  {
    "Compound": "CC(C)(C)C#Cc1cc(N(C(=O)[C@H]2CC[C@H](C)CC2)[C@H]2CC[C@H](O)CC2)c(C(=O)O)s1",
    "relative viability": "117%"
  },
  {
    "Compound": "Cc1cn(-c2cc(NC(=O)c3ccc(C)c(Nc4nccc(-c5cccnc5)n4)c3)cc(C(F)(F)F)c2)cn1",
    "relative viability": "71.8%"
  },
  {
    "Compound": "Cc1ccc(CN2CCNCC2)cc1NC(=O)CNc1ccc(F)c(F)c1",
    "relative viability": "98.3%"
  },
  {
    "Compound": "CC1=C2C[C@H]3[C@@H](CC=C4C[C@@H](O)CC[C@@]43C)[C@@H]2CC[C@]12O[C@@H]1C[C@H](C)CN[C@H]1[C@H]2C",
    "relative viability": "95.6%"
  },
  {
    "Compound": "Cn1cc(/C=C/C(=O)c2cccc(F)c2)cc1/C=C/C(=O)NO",
    "relative viability": "107%"
  },
  {
    "Compound": "CN1CCCC(n2nc(Cc3ccc(Cl)cc3)c3ccccc3c2=O)CC1 (configuration not stated) [Azelastine HCl (Astelin)]",
    "relative viability": "114%"
  },
  {
    "Compound": "COc1c(C)cnc(Cn2cnc3c(Cl)nc(N)nc32)c1C",
    "relative viability": "120%"
  }
]

---

Test system: 621-103 (TSC2-rescued)
Test: relative viability vs DMSO; higher = less cytotoxic
Conditions: 0.01 µM; serum: 10% FBS; 72 h
Where a name gives a salt, the structure may show the parent alone.

[
  {
    "Compound": "COc1ccc(-c2nc3cc(C4=NNC(=O)CC4C)ccc3[nH]2)cc1 (centres undefined)",
    "Unit abbrev": "%",
    "relative viability": 102
  },
  {
    "Compound": "Cc1ccc(Nc2nccc(N(C)c3ccc4c(C)n(C)nc4c3)n2)cc1S(N)(=O)=O [Pazopanib Hydrochloride]",
    "Unit abbrev": "%",
    "relative viability": 102
  },
  {
    "Compound": "CC1(C)CC(=O)c2c(C(F)(F)F)nn(-c3ccc(C(N)=O)c(N[C@H]4CC[C@H](O)CC4)c3)c2C1",
    "Unit abbrev": "%",
    "relative viability": 84.4
  },
  {
    "Compound": "C=CCNC1=C2C[C@@H](C)C[C@H](OC)[C@H](O)[C@@H](C)/C=C(\\C)[C@H](OC(N)=O)[C@@H](OC)/C=C\\C=C(/C)C(=O)NC(=CC1=O)C2=O",
    "Unit abbrev": "%",
    "relative viability": 72.4
  },
  {
    "Compound": "CC(C)C[C@H](NC(=O)CNC(=O)c1cc(Cl)ccc1Cl)B1OC(=O)C(CC(=O)O)(CC(=O)O)O1",
    "Unit abbrev": "%",
    "relative viability": 102
  },
  {
    "Compound": "Cc1ccc(S(=O)(=O)OCC(=O)Nc2ccc(C(=O)O)c(O)c2)cc1",
    "Unit abbrev": "%",
    "relative viability": 104
  },
  {
    "Compound": "O=C1[C@H](Cc2ccc(O)cc2)N2C(=O)CCN(C(=O)NCc3ccccc3)[C@H]2CN1Cc1cccc2ccccc12",
    "Unit abbrev": "%",
    "relative viability": 109
  },
  {
    "Compound": "COc1nc(C)cnc1NS(=O)(=O)c1cccnc1-c1ccc(-c2nnco2)cc1 [Zibotentan (ZD4054)]",
    "Unit abbrev": "%",
    "relative viability": 100
  },
  {
    "Compound": "CO[C@H]1C[C@@H]2CC[C@@H](C)[C@@](O)(O2)C(=O)C(=O)N2CCCC[C@H]2C(=O)O[C@H]([C@H](C)C[C@@H]2CC[C@@H](OC(=O)C(C)(CO)CO)[C@H](OC)C2)CC(=O)[C@H](C)/C=C(\\C)[C@@H](O)[C@@H](OC)C(=O)[C@H](C)C[C@H](C)/C=C/C=C/C=C/1C",
    "Unit abbrev": "%",
    "relative viability": 78.7
  },
  {
    "Compound": "COc1cc2ncnc(Nc3ccc(F)c(Cl)c3)c2cc1OCCCN1CCOCC1",
    "Unit abbrev": "%",
    "relative viability": 102
  },
  {
    "Compound": "NC(=O)c1ccc(I)c([N+](=O)[O-])c1",
    "Unit abbrev": "%",
    "relative viability": 106
  },
  {
    "Compound": "CCCCC1=NC2(CCCC2)C(=O)N1Cc1ccc(-c2ccccc2-c2nnn[nH]2)cc1",
    "Unit abbrev": "%",
    "relative viability": 95.6
  },
  {
    "Compound": "CCN(CC)CCOc1ccc(C(=C(Cl)c2ccccc2)c2ccccc2)cc1 [Clomifene citrate (Serophene)]",
    "Unit abbrev": "%",
    "relative viability": 97.2
  },
  {
    "Compound": "CCOC(=O)C1=C(C)NC(C)=C(C(=O)OC)C1c1cccc(Cl)c1Cl (centres undefined)",
    "Unit abbrev": "%",
    "relative viability": 104
  },
  {
    "Compound": "Nc1ncnc2c1c(-c1cccc(OCc3ccccc3)c1)cn2C1CC(CN2CCCC2)C1 (centres undefined)",
    "Unit abbrev": "%",
    "relative viability": 94.3
  },
  {
    "Compound": "CN(C)CC[C@H](CSc1ccccc1)Nc1ccc(S(=O)(=O)NC(=O)c2ccc(N3CCN(Cc4ccccc4-c4ccc(Cl)cc4)CC3)cc2)cc1[N+](=O)[O-]",
    "Unit abbrev": "%",
    "relative viability": 97.8
  },
  {
    "Compound": "CC1(C)C(=O)N(CCN2CCC(C(=O)c3ccc(F)cc3)CC2)c2ccccc21",
    "Unit abbrev": "%",
    "relative viability": 96.9
  },
  {
    "Compound": "O=C1NC(=O)C(c2ccccc2)(c2ccccc2)N1",
    "Unit abbrev": "%",
    "relative viability": 100
  },
  {
    "Compound": "Oc1ccc([C@@H]2Oc3ccc(O)cc3[C@@H]3CCC[C@@H]32)cc1",
    "Unit abbrev": "%",
    "relative viability": 103
  },
  {
    "Compound": "Cc1ccc(NC(=O)c2ccc(CN3CCN(C)CC3)cc2)cc1Nc1nccc(-c2cccnc2)n1 [Imatinib (STI571)]",
    "Unit abbrev": "%",
    "relative viability": 101
  },
  {
    "Compound": "COc1ccccc1N1CCN(CC(O)COc2cccc3ccccc23)CC1 (centres undefined)",
    "Unit abbrev": "%",
    "relative viability": 112
  },
  {
    "Compound": "CCC1=C[C@@H]2CN(C1)Cc1c([nH]c3ccccc13)[C@@](C(=O)OC)(c1cc3c(cc1OC)N(C)[C@H]1[C@@](O)(C(=O)OC)[C@H](OC(C)=O)[C@]4(CC)C=CCN5CC[C@@]31[C@H]54)C2",
    "Unit abbrev": "%",
    "relative viability": 39
  },
  {
    "Compound": "CCC[C@H](Nc1nc(-c2ccc(NC(=O)NCC)c(OC)c2)ncc1C)c1cccnc1",
    "Unit abbrev": "%",
    "relative viability": 40.2
  },
  {
    "Compound": "C[C@]12CC[C@H]3[C@@H](CC[C@@]45O[C@@H]4C(O)=C(C#N)C[C@]35C)[C@@H]1CC[C@@H]2O",
    "Unit abbrev": "%",
    "relative viability": 106
  },
  {
    "Compound": "CC(C)(C)Cn1c(N)nc2ccc(-c3[nH]c(C(C)(C)C)nc3-c3ccc(F)cc3)nc21",
    "Unit abbrev": "%",
    "relative viability": 97.1
  },
  {
    "Compound": "Cc1cccc(-c2nn3c(c2-c2ccnc4ccc(C(N)=O)cc24)CCC3)n1",
    "Unit abbrev": "%",
    "relative viability": 97.8
  },
  {
    "Compound": "CCOc1ccccc1OCCN[C@H](C)Cc1ccc(OC)c(S(N)(=O)=O)c1 [Tamsulosin HCl]",
    "Unit abbrev": "%",
    "relative viability": 105
  },
  {
    "Compound": "COc1cc(OC)c(OC)cc1C=O",
    "Unit abbrev": "%",
    "relative viability": 94.8
  },
  {
    "Compound": "C[C@@H]1CCN(C(=O)CC#N)C[C@@H]1N(C)c1ncnc2[nH]ccc12",
    "Unit abbrev": "%",
    "relative viability": 99.1
  }
]
